Tested on: INS1
Test: INS-1E survival protection against cytokine death – cell-based, luminescence, retest, dose response (AID 449756);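 further: cell death triggered by IL-1 beta plus TNF-alpha plus IFN-gamma mixture; protective hits raise ATP signal compared with cytokine alone wells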
Type: functional
Conditions: Rattus norvegicus
Active and inactive are the calls of the source. No stated cut-off is given here; in the data, actives have a measured AC50 and inactives only a lower limit.
PROPERTY MEASURED: AC50

Solved entries:
| SMILES RECORD | AC50 |
| --- | --- |
| [O-]c1ccccc1-[n+]1c(-c2ccccc2)cc(-c2ccccc2)cc1-c1ccccc1 | 6.35 µM (active) |
| CN(C)c1ccc(-c2cc(O)c3ncccc3c2)cc1 | 5.16 µM (active) |
| Cc1cc(C)nc(OC(=O)c2ccc(Cl)cc2Cl)n1 | 84.3 µM (active) |

So what does the record say about AC50 for CCOC(=O)N1CCN(C(=O)CSCC(=O)Nc2nc(-c3ccc(-c4ccccc4)cc3)cs2)CC1 ?
4.63 µM (active)

So what does the record say about AC50 for O=C([O-])c1cc(-c2ccccc2)cc(-c2ccccc2)[n+]1Cc1ccccc1 ?
1.96 µM (active)
